EXPERIMENTAL TARGET: UniProt P25090
ASSAY NAME: Agonist activity at human FPR2 expressed in HEK 293 cells co-expressing Galpha15 measured every 1.5 sec for 80 sec by Fluo-4 NW staining based scanning fluorometric method
Assay type: cell-based, HEK293
Doc: threshold 200 pM (exclusive). Items with EC50 beneath it return True; others return False.

Study these solved cases before continuing.
COMPOUND	CLASS
COc1ccc(C2CNC(=O)C2NC(=O)Nc2ccc(Cl)cc2)cc1 (single isomer, unassigned; (-))	False
COc1ccc([C@@H]2CCNC(=O)[C@H]2NC(=O)Nc2ccc(Cl)cc2)cc1 (racemic)	True
COc1ccc(C2CNC(=O)C2NC(=O)Nc2ccc(Cl)cc2)cc1 (single isomer, unassigned; (+))	False

QUERY: Strictly below 200 pM in EC50? `COc1cc(F)c([C@@H]2CNC(=O)[C@H]2NC(=O)Nc2ccc(F)c(O)c2)c(F)c1`
RESULT: True

QUERY: Strictly below 200 pM in EC50? `COc1cc(F)c([C@@H]2CNC(=O)[C@H]2NC(=O)Nc2ccc(C)cc2)c(F)c1`
RESULT: False

QUERY: Strictly below 200 pM in EC50? `COc1cc(F)c([C@@H]2CNC(=O)[C@H]2NC(=O)Nc2ccc(Br)cc2)c(F)c1`
RESULT: True

QUERY: Strictly below 200 pM in EC50? COc1ccc([C@@H]2CNC(=O)[C@H]2NC(=O)Nc2ccc(Cl)cc2)cc1 (racemic)
RESULT: True

QUERY: Strictly below 200 pM in EC50? `COc1ccc([C@@H]2CNC(=O)[C@H]2NC(=O)Nc2ccc(Cl)cc2)cc1`
RESULT: True

QUERY: Strictly below 200 pM in EC50? `COc1cc(F)c([C@@H]2CNC(=O)[C@H]2NC(=O)Nc2ccc(F)cc2)c(F)c1`
RESULT: True

---

Listed next: entries and their corresponding pEC50.
EXPERIMENTAL TARGET: N-formyl peptide receptor 2 (Homo sapiens, UniProt P25090)
Sequence (P25090 whole entry): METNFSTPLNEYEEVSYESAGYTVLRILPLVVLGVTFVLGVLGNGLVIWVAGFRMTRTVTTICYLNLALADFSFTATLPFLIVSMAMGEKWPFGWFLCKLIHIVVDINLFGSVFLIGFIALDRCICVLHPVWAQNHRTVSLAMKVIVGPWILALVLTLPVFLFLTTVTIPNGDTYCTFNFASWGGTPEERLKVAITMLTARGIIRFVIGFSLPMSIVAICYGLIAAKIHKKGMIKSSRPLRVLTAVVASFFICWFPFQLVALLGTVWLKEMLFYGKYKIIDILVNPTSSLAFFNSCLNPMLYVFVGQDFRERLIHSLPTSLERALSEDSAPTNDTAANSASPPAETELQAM
ASSAY NAME: Agonist activity at human FPR2 expressed in HEK 293 cells co-expressing Galpha15 measured every 1.5 sec for 80 sec by Fluo-4 NW staining based scanning fluorometric method
Assay type: cell-based, HEK293
// scale note: pEC50 = -log10(conc_M); give the bare number

Some solved entries appear below for comparison.
COMPOUND	ASSAY VALUE
COc1ccc([C@@H]2NC(=O)[C@@H]2NC(=O)Nc2ccc(Cl)cc2)cc1 (racemic)	7.92
COc1cc(F)c([C@@H]2CNC(=O)[C@H]2NC(=O)Nc2ncc(Cl)s2)c(F)c1	8.72
COc1ccc([C@@H]2CNC(=O)[C@H]2NC(=O)Nc2ccc(F)cc2)cc1	10.07

QUERY: Indicate its recorded pEC50; the compound in question is COc1ccc(CC(NC(=O)Nc2ccc(Cl)cc2)C(N)=O)cc1 (racemic)
RESULT: 8.44

QUERY: Indicate its recorded pEC50; the compound in question is `COc1cc(F)c([C@@H]2CNC(=O)[C@H]2NC(=O)Nc2ccc(C)c(O)c2)c(F)c1`
RESULT: 10.11

QUERY: Indicate its recorded pEC50; the compound in question is COc1ccc(CC(CO)NC(=O)Nc2ccc(Cl)cc2)cc1 (racemic)
RESULT: 8.17

QUERY: Indicate its recorded pEC50; the compound in question is `COc1ccc([C@@H]2CNC(=O)[C@H]2NC(=O)Nc2ccc(F)cc2)c(C)c1`
RESULT: 8.80

QUERY: Indicate its recorded pEC50; the compound in question is `COc1ccc([C@@H]2CNC(=O)[C@H]2NC(=O)Nc2ccc(F)cc2)cc1F`
RESULT: 9.05

QUERY: Indicate its recorded pEC50; the compound in question is `COc1ccc([C@@H]2CNC(=O)[C@H]2NC(=O)Nc2ccc(F)cc2)c(Cl)c1`
RESULT: 8.40

Provenance of the data: ChEMBL document CHEMBL4725241
